# procedure-summary: Solubility
The label depends only on solubility: Yes if it is at least 4 µM, No if it is smaller.

Worked examples, 5 molecules total:
>>> assigned_category("CNCc1ccc(NC(=O)c2cc3c(-c4cnc5[nH]ccc5c4)cccc3s2)cc1")
"Yes"
>>> assigned_category("CN(C)C(=O)c1cc(NC(=O)c2nc3c(-c4cnc5[nH]ccc5c4)cccc3s2)ccc1O")
"No"
>>> assigned_category("O=C(c1cc2c(-c3cnc4[nH]ccc4c3)cccc2s1)N1CCN(c2ccccc2)C(=O)C1")
"Yes"
>>> assigned_category("O=C(Nc1ccc(O)c(C(=O)N2CCCCC2)c1)c1cc2c(-c3cnc4[nH]ccc4c3)cccc2s1")
"No"
>>> assigned_category("CN(C)C(=O)c1cc(NC(=O)c2cc3c(-c4cnc5[nH]ccc5c4)cccc3s2)ccc1O")
"Yes"

Prompt line: Could you please find out whether O=C(Nc1ccc(O)c(C(=O)N2CCC2)c1)c1cc2c(-c3cnc4[nH]ccc4c3)cccc2s1 has solubility that meets 4 µM or exceeds it?
Response line: No

Prompt line: Could you please find out whether CNCc1ccc(NC(=O)c2ccn3ncc(-c4cncc5ccccc45)c3c2)cc1 has solubility that meets 4 µM or exceeds it?
Response line: Yes

Prompt line: Could you please find out whether COc1ccc(NC(=O)c2cc3c(-c4cnc5[nH]cc(C)c5c4)cccc3s2)cc1C(=O)N(C)C has solubility that meets 4 µM or exceeds it?
Response line: No

Prompt line: Could you please find out whether O=C(Nc1ccc(O)c(C(=O)NC2COC2)c1)c1cc2c(-c3cnc4[nH]ccc4c3)cccc2s1 has solubility that meets 4 µM or exceeds it?
Response line: No

Prompt line: Could you please find out whether COc1ccc(NC(=O)c2cc3c(-c4cnc5[nH]ccc5c4)cccc3s2)cc1C(=O)N1CCN(C)CC1 has solubility that meets 4 µM or exceeds it?
Response line: Yes

====

# system-name: JNK3 (Homo sapiens, UniProt P53779)
# Sequence (P53779 whole entry): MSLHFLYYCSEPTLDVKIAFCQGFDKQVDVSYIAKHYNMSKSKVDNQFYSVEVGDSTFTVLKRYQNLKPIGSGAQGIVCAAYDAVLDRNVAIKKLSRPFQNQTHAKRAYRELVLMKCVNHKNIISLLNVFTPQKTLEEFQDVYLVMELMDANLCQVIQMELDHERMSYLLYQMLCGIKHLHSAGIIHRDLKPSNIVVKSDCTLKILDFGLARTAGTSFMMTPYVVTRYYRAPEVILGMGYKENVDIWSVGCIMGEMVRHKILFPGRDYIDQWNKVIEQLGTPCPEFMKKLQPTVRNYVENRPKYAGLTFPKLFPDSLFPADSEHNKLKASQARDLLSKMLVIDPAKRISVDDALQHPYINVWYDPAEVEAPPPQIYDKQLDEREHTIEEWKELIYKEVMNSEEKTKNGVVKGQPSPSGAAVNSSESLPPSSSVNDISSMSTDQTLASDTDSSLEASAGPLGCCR
# procedure-summary: Promega NanoBRET intracellular target engagement (tracer K10 displacement), JNK3
pIC50: −log10 of the molar value.
The label depends only on pIC50: Satisfied if it is at least 6, Not satisfied if it is smaller.

>>> assigned_category("CN(C)C(=O)c1cc(NC(=O)c2cc3c(-c4cnc5[nH]ccc5c4)cccc3s2)ccc1O")
"Satisfied"
>>> assigned_category("CNCc1ccc(NC(=O)c2cc3c(-c4cnc5[nH]ccc5c4)cccc3s2)cc1")
"Not satisfied"
>>> assigned_category("O=C(Nc1cccc(C(=O)N2CCCCC2)c1)c1cc2c(-c3cnc4[nH]ccc4c3)cccc2s1")
"Satisfied"

Prompt line: Could you please find out whether CN(C)C(=O)c1ccc(O)c(NC(=O)c2cc3c(-c4cnc5[nH]ccc5c4)cccc3s2)c1 has pIC50 that meets 6 or exceeds it?
Response line: Not satisfied

Prompt line: Could you please find out whether CNCc1ccc(NC(=O)c2ccn3ncc(-c4cnc5[nH]ccc5c4)c3c2)cc1 has pIC50 that meets 6 or exceeds it?
Response line: Not satisfied

Prompt line: Could you please find out whether CN(C)C(=O)c1cc(NC(=O)c2cc3c(-c4cnc5[nH]ccc5c4)cccc3o2)ccc1O has pIC50 that meets 6 or exceeds it?
Response line: Not satisfied

====

# system-name: JNK3 (Homo sapiens)
# procedure-summary: JNK3 kinase (intrinsic ATPase, Kinase-Glo) assay
# Format: biochemical
# run-conditions: Table 3a; read-out: Kd JNK3
Kd for assorted compounds
Numbers only here, please. The scale is nM.

Known results for compounds:
>>> observed_measurement("COc1ccc(NC(=O)c2cc3c(-c4cnc5[nH]cc(C)c5c4)cccc3s2)cc1C(=O)N(C)C")
0.81
>>> observed_measurement("CNC(=O)c1ccc(NC(=O)c2ccn3ncc(-c4cnc5[nH]ccc5c4)c3c2)cc1")
0.33
>>> observed_measurement("CN(C)C(=O)c1cc(NC(=O)c2cc3c(-c4cnc5[nH]ccc5c4)cncc3s2)ccc1O")
0.32

Shifting focus to the compound that follows.
Prompt line: Would you kindly share the measured Kd for CNC(=O)c1cc2c(-c3cnc4[nH]ccc4c3)cccc2s1 ?
Response line: 9

====

# system-name: JNK1 (Homo sapiens)
# Sequence (P45983 whole entry): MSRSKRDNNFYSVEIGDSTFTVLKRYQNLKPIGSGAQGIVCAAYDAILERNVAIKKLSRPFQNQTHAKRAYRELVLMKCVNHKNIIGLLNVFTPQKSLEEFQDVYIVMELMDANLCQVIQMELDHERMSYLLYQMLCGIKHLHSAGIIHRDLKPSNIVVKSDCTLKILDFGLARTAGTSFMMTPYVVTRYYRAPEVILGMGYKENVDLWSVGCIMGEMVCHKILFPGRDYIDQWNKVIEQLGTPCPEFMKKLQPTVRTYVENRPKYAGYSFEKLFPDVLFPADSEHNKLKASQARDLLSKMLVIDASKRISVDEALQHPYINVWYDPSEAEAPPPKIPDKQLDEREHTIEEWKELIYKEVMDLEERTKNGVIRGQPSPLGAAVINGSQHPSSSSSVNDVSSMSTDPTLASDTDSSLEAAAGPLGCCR
# procedure-summary: Promega NanoBRET intracellular target engagement (tracer K10 displacement), JNK1
pIC50: −log10 of the molar value.
The label depends only on pIC50: 1 if it is at least 5, -1 if it is smaller.

>>> assigned_category("CNC(=O)c1cc(NC(=O)c2cc3c(-c4cnc5[nH]ccc5c4)cccc3s2)ccc1OC")
1
>>> assigned_category("CNC(=O)CN1[C@H](CC(=O)NCCCN(C)c2ccc(F)cc2)CNC[C@H]1C")
-1
>>> assigned_category("CN(C)C(=O)c1cc(NC(=O)c2cc3c(-c4cnc5[nH]ccc5c4)cccc3s2)ccc1O")
1

Prompt line: Could you please find out whether NC(=O)c1cccc(NC(=O)c2cc3c(-c4cnc5[nH]ccc5c4)cccc3s2)c1 has pIC50 that meets 5 or exceeds it?
Response line: 1

Prompt line: Could you please find out whether CN(C)C(=O)c1cc(NC(=O)c2cc3c(-c4cnc5[nH]ccc5c4)cccc3o2)ccc1O has pIC50 that meets 5 or exceeds it?
Response line: 1

Prompt line: Could you please find out whether CNC(=O)CN1[C@H](CCNC(=O)OCc2ccccc2)CN(Cc2cccc3ccnn23)C[C@H]1CC(=O)NCCCN(C)c1ccc(F)cc1 has pIC50 that meets 5 or exceeds it?
Response line: -1

Prompt line: Could you please find out whether COc1ccc(NC(=O)c2cc3c(-c4cnc5[nH]ccc5c4)cccc3s2)cc1C(=O)N1CCN(C)CC1 has pIC50 that meets 5 or exceeds it?
Response line: 1

Prompt line: Could you please find out whether Cc1ccc(NC(=O)c2ccn3ncc(-c4cncc5ccccc45)c3c2)cc1 has pIC50 that meets 5 or exceeds it?
Response line: 1

Prompt line: Could you please find out whether O=C(Nc1cccc(C(=O)N2CCCCC2)c1)c1cc2c(-c3cnc4[nH]ccc4c3)cccc2s1 has pIC50 that meets 5 or exceeds it?
Response line: 1

====

pKd for assorted molecules
# system-name: CSNK1G1 (Homo sapiens, UniProt Q9HCP0)
# Construct: purchased ThermoFisher (SelectScreen)
# Sequence (Q9HCP0 whole entry): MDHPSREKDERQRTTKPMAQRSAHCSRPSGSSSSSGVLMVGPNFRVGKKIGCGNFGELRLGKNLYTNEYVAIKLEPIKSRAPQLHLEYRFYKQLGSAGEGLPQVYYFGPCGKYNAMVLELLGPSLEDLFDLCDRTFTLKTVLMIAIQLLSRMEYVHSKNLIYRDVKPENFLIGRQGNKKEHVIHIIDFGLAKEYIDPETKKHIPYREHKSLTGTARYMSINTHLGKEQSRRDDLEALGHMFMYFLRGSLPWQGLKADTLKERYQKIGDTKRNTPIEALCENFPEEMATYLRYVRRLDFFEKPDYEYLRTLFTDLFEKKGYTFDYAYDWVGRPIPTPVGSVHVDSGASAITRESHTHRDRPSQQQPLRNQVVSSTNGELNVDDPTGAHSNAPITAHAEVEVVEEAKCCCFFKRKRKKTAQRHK
# procedure-summary: ThermoFisher SelectScreen, CSNK1G1
# Type: binding
# run-conditions: Table 4
Give only the number. pKd is defined as minus log10 of concentration in molar units.

>>> observed_measurement("CNCc1ccc(NC(=O)c2ccn3ncc(-c4cnc5[nH]ccc5c4)c3c2)cc1 [CDD-2346]")
6.88

Prompt line: Reported pKd for CSNK1G1 (Homo sapiens, UniProt Q9HCP0), given COc1ccc(NC(=O)c2cc3c(-c4cnc5[nH]ccc5c4)cccc3s2)cc1C(=O)N1CCCCC1 [CDD-2491] ?
Response line: 4.02

Prompt line: Reported pKd for CSNK1G1 (Homo sapiens, UniProt Q9HCP0), given CN(C)Cc1ccc(NC(=O)c2ccn3ncc(-c4cnc5[nH]ccc5c4)c3c2)cc1 [CDD-2482] ?
Response line: 7.28

Prompt line: Reported pKd for CSNK1G1 (Homo sapiens, UniProt Q9HCP0), given O=C(Nc1ccc(F)cc1)c1ccn2ncc(-c3cnc4[nH]ccc4c3)c2c1 [CDD-2486] ?
Response line: 4.84

====

log10 half-life for assorted compounds
# procedure-summary: In vitro metabolism in mouse liver microsomes
# run-conditions: mouse, microsomes
# values: log10(half-life), units h

Known results for compounds:
>>> observed_measurement("CN(C)C(=O)c1cc(NC(=O)c2cc3c(-c4cnc5[nH]ncc5c4)cccc3s2)ccc1O [CDD-3018]")
-0.01
>>> observed_measurement("O=C(Nc1ccc(O)c(C(=O)N2CCC2)c1)c1cc2c(-c3cnc4[nH]ccc4c3)cccc2s1 [CDD-3014]")
0.01
>>> observed_measurement("N#Cc1cc(NC(=O)c2cc3c(-c4cnc5[nH]ccc5c4)cccc3s2)ccc1O [CDD-3126]")
0.38
>>> observed_measurement("CNC(=O)c1ccc(NC(=O)c2ccn3ncc(-c4cnc5[nH]ccc5c4)c3c2)cc1 [CDD-2461]")
-0.29
>>> observed_measurement("CNCc1ccc(NC(=O)c2ccn3ncc(-c4cnc5[nH]ccc5c4)c3c2)cc1 [CDD-2346]")
0.06

Prompt line: Would you kindly share the measured log10 half-life for COc1ccc(NC(=O)c2cc3c(-c4cnc5[nH]ccc5c4)cccc3s2)cc1C(=O)N1CCCCC1 [CDD-2491] ?
Response line: -0.59

Prompt line: Would you kindly share the measured log10 half-life for O=C(Nc1cncnc1)c1cc2c(-c3cnc4[nH]ccc4c3)cccc2s1 [CDD-3015] ?
Response line: -0.11

Prompt line: Would you kindly share the measured log10 half-life for Cc1ccc(NC(=O)c2cc3c(-c4cnc5[nH]ccc5c4)cccc3s2)cc1C(=O)N(C)C [CDD-2729] ?
Response line: -0.47

Prompt line: Would you kindly share the measured log10 half-life for O=C(Nc1ccc(O)c(C(=O)N2CCCCC2)c1)c1cc2c(-c3cnc4[nH]ccc4c3)cccc2s1 [CDD-2634] ?
Response line: -0.01

Prompt line: Would you kindly share the measured log10 half-life for O=C(Nc1ccc2c(c1)C(=O)NC2)c1cc2c(-c3cnc4[nH]ccc4c3)cccc2s1 [CDD-3115] ?
Response line: 0.16
